Data origin, for the record: ChEMBL document CHEMBL4364267

Exercise: for every item that follows, state its recorded IC50.
System: K562
Assay Comment: Antiproliferative activity against human K562 cells assessed as reduction in cell viability after 72 hrs by MTT assay
Format: functional, cell-based
Study Conditions: K562, 72 h
Give bare numbers, in µM.

// query // fetch K562 IC50 for C=C1C(=O)[C@]23[C@H](OC(=O)c4ccccc4C(=O)Oc4ccc(-c5cc(=S)ss5)cc4)[C@H]1CC[C@H]2[C@@]12CO[C@]3(O)[C@@H](O)[C@@H]1C(C)(C)CCC2=O
// result 4.8

// query Okay, and C=C1C(=O)[C@]23[C@H](OC(=O)CCCCC4CCSS4)[C@H]1CC[C@H]2[C@@]12CO[C@]3(O)[C@@H](O)[C@@H]1C(C)(C)CC[C@@H]2OC(C)=O (some centres not stated) ?
// result 2.84

// query Now consider O=c1[nH]cc(F)c(=O)[nH]1 .
// result 4.02

// query Same thing, different compound: C=C1C(=O)[C@@]23C(=O)OC[C@]4(C(=O)CCC(C)(C)[C@H]4C=O)[C@@H]2CC[C@@H]1[C@H]3O
// result 3.26

The record that follows has no IC50 shown yet.
// query Test system K562; read-out IC50; what value for C=C1C(=O)[C@]23[C@H](O)[C@H]1CC[C@H]2[C@@]12CO[C@]3(O)[C@@H](O)[C@@H]1C(C)(C)CCC2=O ?
// result 4.02

* * *

Test system: K562
Assay Comment: Antiproliferative activity against human K562 cells assessed as reduction in cell viability after 72 hrs by MTT assay
Type: functional, cell-based
Study Conditions: K562, 72 h
Quantity Measured: pIC50
One number for each entry, as −log10 of the molar value.

Example compounds with recorded pIC50:
// query Name the reported pIC50 value associated with the compound C=C1C(=O)[C@@]23C(=O)OC[C@]4([C@@H](OC(C)=O)CCC(C)(C)[C@H]4C=O)[C@@H]2CC[C@@H]1[C@H]3O
// result 5.05

// query Next record, please: C=C1C(=O)[C@@]23C(=O)OC[C@]4([C@@H](OC(C)=O)CCC(C)(C)[C@H]4C=O)[C@@H]2CC[C@@H]1[C@H]3OC(=O)CCCCC1CCSS1 (some centres undefined)
// result 5.17

// query And C=C1C(=O)[C@@]23C(=O)OC[C@]4(C(=O)CCC(C)(C)[C@H]4C=O)[C@@H]2CC[C@@H]1[C@H]3OC(=O)c1ccccc1C(=O)Oc1ccc(-c2cc(=S)ss2)cc1 ?
// result 5.37

Note: attention shifts to another entry.
// query If you can, please state the reported pIC50 value of C=C1C(=O)[C@]23[C@H](OC(=O)CCCC(=O)Oc4ccc(-c5cc(=S)ss5)cc4)[C@H]1CC[C@H]2[C@@]12CO[C@]3(O)[C@@H](O)[C@@H]1C(C)(C)CC[C@@H]2OC(C)=O .
// result 5.69

* * *

System: L02
Assay Comment: Cytotoxicity against human L02 cells assessed as reduction in cell viability after 72 hrs by MTT assay
Assay type: cell-based
Study Conditions: L02, 72 h
Quantity Measured: pIC50
One number for each entry, as −log10 of the molar value.

Here are 2 compounds together with their reported answers.
// query I would be grateful if you could share the reported pIC50 for C=C1C(=O)[C@]23[C@H](OC(=O)CCCC(=O)Oc4ccc(-c5cc(=S)ss5)cc4)[C@H]1CC[C@H]2[C@@]12CO[C@]3(O)[C@@H](O)[C@@H]1C(C)(C)CCC2=O .
// result 4.68

// query Repeat for the following compound: C=C1C(=O)[C@@]23C(=O)OC[C@]4(C(=O)CCC(C)(C)[C@H]4C=O)[C@@H]2CC[C@@H]1[C@H]3OC(=O)CCCC(=O)Oc1ccc(-c2cc(=S)ss2)cc1
// result 4.68

Consider the record given below.
// query Endpoint output: pIC50 of C=C1C(=O)[C@@]23C(=O)OC[C@]4([C@@H](OC(C)=O)CCC(C)(C)[C@H]4C=O)[C@@H]2CC[C@@H]1[C@H]3OC(=O)CCCCC1CCSS1 (some centres undefined) . Value?
// result 4.44
